Origin of the recorded values: patent US11286228B2

Kindly supply the reported IC50 values for the records listed here.
Target: cyclophilin
Experiment: Cis-trans isomerase inhibitory activity (chymotrypsin-coupled Suc-AAPF-pNA cleavage, absorbance 390 nm)
Assay type: biochemical
Conditions: cyclophilin, chymotrypsin, Suc-AAPF-pNA; read-out: Test Example 1: cis-trans isomerase inhibitory activity (IC50)

Q: Field request: IC50 | item: `CC(C)(C)c1ccc(C(C#N)=Cc2ccccc2C(=O)O)cc1`
A: 20 to 200 nM

Q: Return reported IC50; argument: `CC(C)c1ccc(C(C#N)=Cc2ccccc2C(=O)O)cc1`
A: 200 to 2000 nM

Q: # get_value(readout='IC50', item= `CCCCOC(=O)c1cc(C)ccc1C=Cc1ccc(CC(C)(C)C)cc1` )
A: 20 to 200 nM

Q: Which IC50 reading was recorded for the compound `CCCOC(=O)c1ccccc1C=Cc1ccc(CC(C)(C)C)cc1` ?
A: ≤ 20 nM

Q: Reported IC50, compound `CC(C)(C)CCc1ccccc1C=C(C#N)c1ccc([N+](=O)[O-])cc1` : ____
A: 20 to 200 nM

Q: Would you kindly share the measured IC50 for `CC(=Cc1ccccc1C(=O)OCc1ccccc1)c1ccc(CC(C)(C)C)cc1` ?
A: 20 to 200 nM

Q: If you can, please state the reported IC50 value of `CCCCCOC(=O)c1ccccc1C=Cc1ccc(CC(C)(C)C)cc1` .
A: ≤ 20 nM

Q: Form field: reported IC50 of `CC(C)(C)Cc1ccccc1C=C(C#N)c1ccc([N+](=O)[O-])cc1`
A: 20 to 200 nM

Q: Find the recorded IC50 belonging to CC(C)C(C)Cc1ccc(C(C#N)=Cc2ccccc2C(=O)O)cc1 (stereo not shown) and report it.
A: 20 to 200 nM

Q: IC50 for `CN(C)c1ccccc1C=C(C#N)c1ccc([N+](=O)[O-])cc1` ?
A: 200 to 2000 nM

Q: Fill blank: measured IC50 of the compound `CC(C)(Cc1ccc(C(C#N)=Cc2ccccc2C(=O)O)cc1)CC1CC1` is ____.
A: 20 to 200 nM

Q: Report IC50 for `N#CC(=Cc1ccccc1C(=O)O)c1ccc(CCC2CCCCC2)cc1` please.
A: ≤ 20 nM

Q: Suppose we examine the compound CCCCOC(=O)c1ccccc1C=Cc1ccc(CC(C)CC)cc1 (stereo not shown) ; what IC50 value has been reported?
A: 20 to 200 nM

Q: Please give the measured IC50 for this compound: CCCCOC(=O)c1ccccc1C=C(Br)c1ccc(CC(C)CC)cc1 (stereo not shown)
A: 20 to 200 nM

Q: I would be grateful if you could share the reported IC50 for `CC(C)(C)Cc1ccc(C=Cc2ccc(O)cc2C(=O)O)cc1` .
A: ≤ 20 nM

Q: // returns reported IC50 for input `CC(C)CCOc1cccc(C=C(C#N)c2ccc([N+](=O)[O-])cc2)c1`
A: 200 to 2000 nM

Q: Value lookup for IC50; key = `CCCCOC(=O)c1ccccc1C=C(C)c1ccc(CC(C)(C)C)cc1`
A: 20 to 200 nM

Q: Look up IC50: `CC(C)(C)Cc1ccc(C=Cc2ccccc2C(N)=O)cc1`
A: ≤ 20 nM

Q: Could you tell me which IC50 is on file for `CCCCOc1ccc(C(C#N)=Cc2ccccc2C(=O)O)cc1` ?
A: 20 to 200 nM
